The following variants are listed with their measured protein stability index values.
B1: CCDC70 (parent)
chain: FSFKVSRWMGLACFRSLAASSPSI

- Variants of: B1
- Test Details: protein stability index of a GFP-peptide fusion (GPS, HEK-293T) (PSI 1-6); higher = more stable;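 further: lentivirally expressed fusions sorted by FACS into six bins by GFP to DsRed ratio, PSI derived from sequencing read proportions per bin multiplied by bin number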
- Condition Set: c terminus: a fixed tail appended
Enter a number only.

Previously resolved entries follow.
> print(dat)
            record.sequence  observed.result
1  FSFKVSRWMALACFRSLAASSPSI             3.75
2  FSFKVSGWMGLACFRSLAASSPSI             1.65
3  FSFKVSRWMGLACIRSLAASSPSI             1.54
4  FSFKVSRWMGLACFRSLAWSSPSI             3.71
5  FSFKRSRWMGLACFRSLAASSPSI             3.55
6  FSFKVSRWMGLACFRSLAASSASI             1.68

# return recorded protein stability index for entry FSFKVSRWMGLAGFRSLAASSPSI
2.27

Consider the variant FSFKVSRWMGLACFRSLAATSPSI and give its recorded protein stability index.
2.31

Please supply the value of reported protein stability index for the item FSRKVSRWMGLACFRSLAASSPSI
3.02

Give reported protein stability index value for FSFKVSRWMGLACFRSLAASSPDI
3.88

Identify measured protein stability index corresponding to FKFKVSRWMGLACFRSLAASSPSI
2.59

Look up protein stability index of FSFKVSRWMGLACGRSLAASSPSI and report it.
3.57

Hello, the source for this data is the supplement of paper PMC10567573, in case you need it.
